This section presents compounds with their documented GI50 values.
System: SF-295
Experiment: NCI tumour cell line growth inhibition, 48 h
Activity calls are given as the source filed them. No stated cut-off is given here; in the data, active = GI50 up to about 1.1 µM and inactive = higher.
RESULT_TYPE: GI50

[
  {
    "COMPOUND": "CN(NC(=O)/C(=C/c1ccc(Cl)cc1)NC(=O)c1ccccc1)c1cn[nH]c(=O)c1Cl",
    "EXPERIMENTAL_TARGET": "SF-295",
    "RESULT": "46.6 µM (inactive)"
  },
  {
    "COMPOUND": "CC(NNC(=O)c1ccncc1)c1ccccc1 (configuration not stated)",
    "EXPERIMENTAL_TARGET": "SF-295",
    "RESULT": "> 100 µM (inactive)"
  },
  {
    "COMPOUND": "O=c1[nH]c(C2CCCCC2)nc2ccc(Cl)cc12",
    "EXPERIMENTAL_TARGET": "SF-295",
    "RESULT": "> 100 µM (inactive)"
  },
  {
    "COMPOUND": "COc1ccc(/C=C2/SC(c3c(O)ccc4ccccc34)N(NC(=O)CCCCCCCCC(=O)NN3C(=O)/C(=C\\c4ccc(OC)c(OC)c4)SC3c3c(O)ccc4ccccc34)C2=O)cc1OC (configuration not stated)",
    "EXPERIMENTAL_TARGET": "SF-295",
    "RESULT": "1.39 µM (inactive)"
  },
  {
    "COMPOUND": "CC(C)OP(=O)(OC(C)C)C(C(C)C)N(C)/C(N)=N/C#N (configuration not stated)",
    "EXPERIMENTAL_TARGET": "SF-295",
    "RESULT": "> 100 µM (inactive)"
  },
  {
    "COMPOUND": "Cc1nc(Nc2ccc(Cl)cc2Cl)sc1C(=O)Nc1ccccc1",
    "EXPERIMENTAL_TARGET": "SF-295",
    "RESULT": "29.9 µM (inactive)"
  },
  {
    "COMPOUND": "COc1ccc(CSC2=C(C#N)C(=O)NC3(CCCCC3)S2)cc1",
    "EXPERIMENTAL_TARGET": "SF-295",
    "RESULT": "51.6 µM (inactive)"
  }
]

====

Tested on: A549
Test: NCI tumour cell line growth inhibition, 48 h
Active and inactive are the calls of the source. Rule as the data show it: active = GI50 up to about 1.1 µM and inactive = higher.

[
  {
    "CHEMICAL_SMILES": "Cc1nc2ccc(S(=O)(=O)NS(=O)(=O)c3ccc(-c4ccccc4)cc3)cc2c(=O)n1NS(=O)(=O)c1ccc(-c2ccccc2)cc1",
    "GI50": "> 100 µM (inactive)"
  },
  {
    "CHEMICAL_SMILES": "CCCCCCOc1ccc(C(=O)N(C)O)cc1",
    "GI50": "12.1 µM (inactive)"
  },
  {
    "CHEMICAL_SMILES": "CC(C)(CO[C@H]1C[C@H]2CC[C@@]1(C)C2(C)C)[N+](=O)[O-]",
    "GI50": "25.5 µM (inactive)"
  },
  {
    "CHEMICAL_SMILES": "C=C(C)c1cc(C(C)(C)C)cc(C(=C)C)c1S(C)(=O)=O",
    "GI50": "> 100 µM (inactive)"
  }
]

====

Tested on: UACC-62
Test: NCI tumour cell line growth inhibition, 48 h
The source made the active and inactive calls. Cut-off read from the data, not from the text of the source: active = GI50 up to about 1.1 µM and inactive = higher.

[
  {
    "COMPOUND": "O=C(CC1=Nc2nnc(CCCCCCCc3nnc4n3C(=O)C(CC(=O)c3ccc5ccccc5c3)=N4)n2C1=O)c1ccc2ccccc2c1",
    "GI50": "> 100 µM (inactive)"
  },
  {
    "COMPOUND": "CC(=O)O/C=C(/C=C/OC(C)=O)C(C/C=C(\\C)C#CC=C(C)C)OC(C)=O (centres undefined)",
    "GI50": "27.4 µM (inactive)"
  },
  {
    "COMPOUND": "CCOC(=O)NNC(=O)NCCNC(=O)NNC(=O)OCC",
    "GI50": "> 100 µM (inactive)"
  },
  {
    "COMPOUND": "CC(=O)NC1=C(C)C(=O)c2c(nc3n2CC[C@H]3OC(C)=O)C1=O",
    "GI50": "1.69 µM (inactive)"
  }
]
